Recorded values, source ChEMBL document CHEMBL2021856.

Listed below: pEC50 values for each entry.
target: 5-hydroxytryptamine receptor 2A (Homo sapiens, UniProt P28223); experiment: Agonist activity at human 5HT2A receptor expressed in HEK293 cells assessed as calcium flux measured every sec for 3 mins by FLIPR assay; format: functional, cell-based; conditions: read-out: EC50
Sequence (P28223 whole entry): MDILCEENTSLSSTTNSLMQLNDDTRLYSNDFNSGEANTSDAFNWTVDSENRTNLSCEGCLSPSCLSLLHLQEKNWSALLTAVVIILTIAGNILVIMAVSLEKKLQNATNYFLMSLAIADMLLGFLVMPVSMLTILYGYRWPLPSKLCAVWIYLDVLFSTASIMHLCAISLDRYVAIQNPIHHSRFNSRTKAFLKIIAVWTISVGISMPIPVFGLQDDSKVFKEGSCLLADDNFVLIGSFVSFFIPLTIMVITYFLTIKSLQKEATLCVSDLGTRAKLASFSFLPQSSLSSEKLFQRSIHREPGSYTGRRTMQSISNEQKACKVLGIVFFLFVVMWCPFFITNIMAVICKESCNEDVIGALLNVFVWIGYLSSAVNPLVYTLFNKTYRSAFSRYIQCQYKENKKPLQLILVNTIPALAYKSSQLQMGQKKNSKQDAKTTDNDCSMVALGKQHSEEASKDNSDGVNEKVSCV
pEC50: −log10 of the molar value.
measured.endpoint: pEC50

INSERT INTO assay_data (compound, observed_measurement) VALUES
  ('NC[C@H]1C[C@@H]1c1cc(F)ccc1OCC1CC1', 6.05),
  ('CCOc1ccccc1[C@H]1C[C@@H]1CN (racemic)', 5.52);

* * *

Molecular target: 5-hydroxytryptamine receptor 2C (Homo sapiens)
Sequence (P28335 whole entry): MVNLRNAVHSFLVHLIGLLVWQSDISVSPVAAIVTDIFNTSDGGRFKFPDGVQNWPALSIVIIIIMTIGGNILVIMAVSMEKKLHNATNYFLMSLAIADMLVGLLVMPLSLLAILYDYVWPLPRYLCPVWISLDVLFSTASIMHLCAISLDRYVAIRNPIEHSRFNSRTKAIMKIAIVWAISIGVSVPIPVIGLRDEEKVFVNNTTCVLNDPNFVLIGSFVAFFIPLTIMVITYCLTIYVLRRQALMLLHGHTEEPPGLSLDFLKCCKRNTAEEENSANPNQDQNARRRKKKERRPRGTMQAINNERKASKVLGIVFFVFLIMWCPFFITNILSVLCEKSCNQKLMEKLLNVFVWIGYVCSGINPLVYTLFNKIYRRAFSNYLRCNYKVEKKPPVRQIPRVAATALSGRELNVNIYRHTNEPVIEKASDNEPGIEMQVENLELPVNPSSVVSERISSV
Experiment: Agonist activity at human 5HT2C receptor expressed in HEK293 cells assessed as calcium flux measured every sec for 3 mins by FLIPR assay
Assay type: functional, cell-based
Conditions: read-out: EC50
# note: exactly 1 µM is not below, so it is Not satisfied; use Satisfied for EC50 strictly under it

INSERT INTO results (compound, class) VALUES
  ('Cl.NC[C@H]1C[C@@H]1c1ccccc1OCc1ccccc1 (racemic)', 'Satisfied'),
  ('COc1ccc(-c2ccccc2F)cc1[C@H]1C[C@@H]1CN.Cl (racemic)', 'Not satisfied'),
  ('CC(C)COc1ccccc1[C@H]1C[C@@H]1CN.Cl (racemic)', 'Satisfied'),
  ('Cl.NC[C@H]1C[C@@H]1c1ccccc1OCC1CCC1 (racemic)', 'Not satisfied'),
  ('COc1ccc(-c2cccc(C)c2)cc1[C@H]1C[C@@H]1CN.Cl (racemic)', 'Not satisfied'),
  ('CCOc1ccccc1[C@H]1C[C@@H]1CN (racemic)', 'Satisfied'),
  ('NC[C@H]1C[C@@H]1c1cc(F)ccc1OCC1CC1', 'Satisfied'),
  ('COc1ccc(-c2ccccc2C)cc1[C@H]1C[C@@H]1CN.Cl (racemic)', 'Not satisfied'),
  ('COc1ccc(-c2cccc(F)c2)cc1[C@H]1C[C@@H]1CN.Cl (racemic)', 'Not satisfied'),
  ('COc1ccc(-c2ccc(F)cc2)cc1[C@H]1C[C@@H]1CN.Cl (racemic)', 'Not satisfied');

* * *

Target: 5-hydroxytryptamine receptor 2C (Homo sapiens, UniProt P28335)
Sequence (P28335 whole entry): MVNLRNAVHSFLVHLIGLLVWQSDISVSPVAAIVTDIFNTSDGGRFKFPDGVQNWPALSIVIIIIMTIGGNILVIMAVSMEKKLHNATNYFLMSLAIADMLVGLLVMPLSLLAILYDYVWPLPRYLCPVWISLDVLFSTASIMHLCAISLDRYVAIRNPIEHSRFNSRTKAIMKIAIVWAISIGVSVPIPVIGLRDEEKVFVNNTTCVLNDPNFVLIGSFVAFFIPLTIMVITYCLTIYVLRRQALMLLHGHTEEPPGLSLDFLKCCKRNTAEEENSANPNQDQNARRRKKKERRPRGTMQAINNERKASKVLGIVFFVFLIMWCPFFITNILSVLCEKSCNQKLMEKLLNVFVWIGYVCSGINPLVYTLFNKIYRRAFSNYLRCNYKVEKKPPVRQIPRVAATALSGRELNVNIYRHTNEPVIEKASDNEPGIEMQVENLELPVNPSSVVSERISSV
Assay: Agonist activity at human 5HT2C receptor expressed in HEK293 cells assessed as calcium flux measured every sec for 3 mins by FLIPR assay
Format: functional, cell-based
Conditions: read-out: EC50
measured.endpoint: EC50

INSERT INTO measurements (molecule, measured_endpoint, observed_measurement) VALUES
  ('CCCOc1ccccc1[C@H]1C[C@@H]1CN.Cl (racemic)', 'EC50', '24 nM'),
  ('Cl.NC[C@@H]1C[C@H]1c1ccccc1OCC1CC1', 'EC50', '978 nM'),
  ('COc1ccc(-c2ccccc2)cc1[C@H]1C[C@@H]1CN.Cl (racemic)', 'EC50', '3800 nM');
